Readings of pIC50 for the listed compounds
# Organism: Homo sapiens
# experiment: Inhibitory concentration required for the inhibition of U-46,619 induced aggregation of human platelets.
# Format: functional
Schema: pIC50 number; meaning minus log10 of the concentration expressed in molar units.

[
  {
    "compound": "O=C(O)CCc1c(-c2cccnc2)ccc2c1CCC(NS(=O)(=O)c1ccc(Cl)cc1)C2 (centres undefined)",
    "pIC50": 6.85
  },
  {
    "compound": "O=C(O)CCC/C=C/c1cc(Cc2cccnc2)cc2c1CCC(NS(=O)(=O)c1ccc(Cl)cc1)C2 (centres undefined)",
    "pIC50": 5.92
  }
]

Task: Quick one: pIC50 for CCCc1c(Cc2cccnc2)cc2c(c1CCC(=O)O)CCC(NS(=O)(=O)c1ccc(Cl)cc1)C2 (centres undefined) ?
Result: 7.20

---

# pIC50 per record follows
# Species on record: Homo sapiens
# experiment: Inhibitory concentration required for the inhibition of U-46,619 induced aggregation of human platelets.
# Type: functional
pIC50 is defined as minus the log10 of a concentration measured in mol/L.

Consider the reported pIC50 for these molecules:
[
  {
    "molecule": "O=C(O)CCC/C=C\\c1cc(Cc2cccnc2)cc2c1CCC(NS(=O)(=O)c1ccc(Cl)cc1)C2 (centres undefined)",
    "pIC50": 7.05
  },
  {
    "molecule": "Cc1c(Cc2cccnc2)cc2c(c1/C=C\\CCCC(=O)O)CCC(NS(=O)(=O)c1ccc(Cl)cc1)C2 (centres undefined)",
    "pIC50": 6.00
  },
  {
    "molecule": "Cc1c(Cc2cccnc2)cc2c(c1/C=C/CCCC(=O)O)CCC(NS(=O)(=O)c1ccc(Cl)cc1)C2 (centres undefined)",
    "pIC50": 6.34
  }
]

# context switch: different molecule, same pIC50
Task: What value of pIC50 has been recorded for this entry: Cc1c(Cc2cccnc2)cc2c(c1CCC(=O)O)CCC(NS(=O)(=O)c1ccc(Cl)cc1)C2 (centres undefined)
Result: 6.21

---

Documented pIC50 across a set of compounds
# Species on record: Homo sapiens
# experiment: Inhibitory concentration required for the inhibition of U-46,619 induced aggregation of human platelets.
# Format: functional
Just so you know, pIC50 here is -log10 of the concentration in molar units; reply with that number alone.

Answered examples (5):
[
  {
    "compound": "O=C(O)CC/C=C/c1cc(Cc2cccnc2)cc2c1CCC(NS(=O)(=O)c1ccc(Cl)cc1)C2 (stereo unspecified)",
    "observedProperty": "pIC50",
    "reportedValue": 8.05
  },
  {
    "compound": "CCCCCc1c(Cc2cccnc2)cc2c(c1CCC(=O)O)CCC(NS(=O)(=O)c1ccc(Cl)cc1)C2 (stereo unspecified)",
    "observedProperty": "pIC50",
    "reportedValue": 6.57
  },
  {
    "compound": "O=C(O)CCc1c2c(cc(Cc3cccnc3)c1-c1ccccc1)CC(NS(=O)(=O)c1ccc(Cl)cc1)CC2 (stereo unspecified)",
    "observedProperty": "pIC50",
    "reportedValue": 6.74
  },
  {
    "compound": "O=C(O)CCc1c(Cc2cccnc2)ccc2c1CCC(NS(=O)(=O)c1ccc(Cl)cc1)C2 (stereo unspecified)",
    "observedProperty": "pIC50",
    "reportedValue": 7.70
  },
  {
    "compound": "O=C(O)CC/C=C/c1c(Cc2cccnc2)ccc2c1CCC(NS(=O)(=O)c1ccc(Cl)cc1)C2 (stereo unspecified)",
    "observedProperty": "pIC50",
    "reportedValue": 7.33
  }
]

Shifting focus to the compound that follows.
Task: Give the measured pIC50 of O=C(O)CCc1cc(Cc2cccnc2)cc2c1CCC(NS(=O)(=O)c1ccc(Cl)cc1)C2 (stereo unspecified) .
Result: 8.15
